This document collects MIC values reported for Escherichia coli.
Numbers only, in µM.

CCCCCCCCCCCC(=O)N/N=C/c1ccccc1Cl [Compound 11] : 15.8
O=C(N/N=C/c1ccccc1)c1cc([N+](=O)[O-])cc([N+](=O)[O-])c1 [Compound 10] : 39.8
COc1cc(OC)cc(C(=O)N/N=C/c2ccccc2Cl)c1 [Compound 19] : 38.9
C/C=C/C=C/C(=O)N/N=C/c1ccccc1 [Compound 5] : 58.9

## Task MIC lookup needed for COc1cc(OC)cc(C(=O)N/N=C/c2ccccc2)c1 [Compound 9] , thanks.
## Result 43.7

* * *

Endpoint: MIC. System: Escherichia coli. Items follow.
Numbers only, in µM.

Take a look at these entries with their results.
O=C(/C=C/c1ccccc1)N/N=C/c1ccccc1Cl [Compound 16] : 43.7
O=C(/C=C/c1ccccc1)N/N=C/c1ccccc1 [Compound 6] : 50.1
CCCCCCCCCCCCCCCC(=O)N/N=C/c1ccccc1 [Compound 3] : 31.6
CCCCCCCCCCCCCC(=O)N/N=C/c1ccccc1 [Compound 2] : 43.7

Attention now shifts to the item below.
## Task So what does the record say about MIC for CCCCCCCCCCCCCCCCCC(=O)N/N=C/c1ccccc1 [Compound 4] ?
## Result 16.2

* * *

Would you kindly list MIC for each of these compounds?
# System: Staphylococcus aureus
# ASSAY_NOTES: MIC by tube dilution, S. aureus
# Format: cell-based
# CONDITION_INFO: 24 h, read-out: pMICsa (Eq. (1)) Obs.
Answers are plain numbers, in µM.

Examples with their reported MIC follow.
Cc1ccc(C(=O)N/N=C/c2ccccc2Cl)cc1 : 45.7
CCCCCCCCCCCCCC(=O)N/N=C/c1ccccc1Cl : 33.9
CCCCCCCCCCCC(=O)N/N=C/c1ccccc1Cl : 37.2
C/C=C/C=C/C(=O)N/N=C/c1ccccc1 : 58.9
CCCCCCCCCCCCCCCC(=O)N/N=C/c1ccccc1Cl : 31.6

// for each compound in input: emit MIC
1. Cc1ccc(C(=O)N/N=C/c2ccccc2)cc1
2. COc1cc(OC)cc(C(=O)N/N=C/c2ccccc2Cl)c1
3. CCCCCCCCCCCCCCCC(=O)N/N=C/c1ccccc1
4. COc1cc(OC)cc(C(=O)N/N=C/c2ccccc2)c1
5. CCCCCCCCCCCCCCCCCC(=O)N/N=C/c1ccccc1

## Result
[52.5, 38.9, 34.7, 43.7, 32.4]

Hi there! I need MIC for each item below, if you can.
1. CCCCCCCCCCCCCCCCCC(=O)N/N=C/c1ccccc1Cl
2. O=C(N/N=C/c1ccccc1)c1cc([N+](=O)[O-])cc([N+](=O)[O-])c1
3. Cc1cccc(C(=O)N/N=C/c2ccccc2)c1
4. C/C=C/C=C/C(=O)N/N=C/c1ccccc1Cl
5. Cc1cccc(C(=O)N/N=C/c2ccccc2Cl)c1
6. CCCCCCCCCCCCCC(=O)N/N=C/c1ccccc1
7. O=C(/C=C/c1ccccc1)N/N=C/c1ccccc1

## Result
1. 29.5
2. 39.8
3. 52.5
4. 50.1
5. 45.7
6. 38
7. 50.1

Okay, here is my list. What is MIC for each of these?
1. O=C(N/N=C/c1ccccc1Cl)c1cc([N+](=O)[O-])cc([N+](=O)[O-])c1
2. O=C(/C=C/c1ccccc1)N/N=C/c1ccccc1Cl
3. CCCCCCCCCCCC(=O)N/N=C/c1ccccc1

## Result
35.5
43.7
41.7

* * *

# Tested on: Escherichia coli
We label by threshold. Values of MIC strictly beneath 40 µM are Satisfied. Values of 40 µM and up are Not satisfied.

Before answering, review these 4 worked examples.
CCCCCCCCCCCCCCCC(=O)N/N=C/c1ccccc1Cl : Satisfied
CCCCCCCCCCCCCCCCCC(=O)N/N=C/c1ccccc1Cl : Satisfied
Cc1ccc(C(=O)N/N=C/c2ccccc2)cc1 : Not satisfied
Cc1cccc(C(=O)N/N=C/c2ccccc2Cl)c1 : Not satisfied

## Task Please check: MIC for `C/C=C/C=C/C(=O)N/N=C/c1ccccc1Cl` , strictly under 40 µM or not?
## Result Not satisfied

## Task In the record for `O=C(N/N=C/c1ccccc1Cl)c1cc([N+](=O)[O-])cc([N+](=O)[O-])c1` , is MIC less than 40 µM?
## Result Satisfied

## Task For this compound, is MIC lower than 40 µM? `CCCCCCCCCCCC(=O)N/N=C/c1ccccc1`
## Result Not satisfied

## Task Item `CCCCCCCCCCCCCC(=O)N/N=C/c1ccccc1Cl` : MIC beneath 40 µM, strictly?
## Result Satisfied

## Task Bench note: check whether `Cc1cccc(C(=O)N/N=C/c2ccccc2)c1` shows MIC below 40 µM
## Result Not satisfied

## Task For `Cc1ccc(C(=O)N/N=C/c2ccccc2Cl)cc1` , is the recorded MIC below the cut-off of 40 µM?
## Result Not satisfied
